Origin of the recorded values: PubChem BioAssay (NCI)

Tested on: HS 578T breast
method summary: NCI-60 one-dose screen, 48 h (100 = growth as untreated, 0 = no growth, -100 = all killed)
cond: 10 µM unless noted
About 83,000 compounds went through this panel and 20% of them were active in at least one assay; those are over-represented in the sample as a whole.
reported endpoint: growth (%)

# smiles input, reported
measured = [
    ("Cc1csc(/N=C(N)/N=C(\\N)c2cccc(C#N)c2)n1", 83.1),
    ("C#CCN(C)CCCOc1ccc(NC(=O)CCCCCCC(=O)NO)cc1Cl", 19.7),
    ("N#Cc1c(-c2ccc(Br)cc2)cc(-c2c[nH]c3ccccc23)nc1N", 58.6),
    ("CN1CCN(c2ccc(Nc3nc(NCCNS(=O)(=O)c4ccc5ccccc5c4)c4sccc4n3)cc2)CC1", 75),
    ("CC(=O)N(O)CCCCCNC(=O)CCC(=O)N(O)CCCCCNC(=O)CCC(=O)N(O)CCCCCN(CCCCCCCCCC[P+](c1ccccc1)(c1ccccc1)c1ccccc1)CCCCCCCCCC[P+](c1ccccc1)(c1ccccc1)c1ccccc1", 16.3),
    ("Cc1cc(NS(=O)(=O)c2ccc(NC(=O)CSc3nc4ccccc4c(=O)n3-c3ccccc3)cc2)no1", 93.3),
    ("Cc1ccc(Nc2nc(SC(C)C)nc(-c3ccccc3)c2C#N)cc1", 87.8),
    ("O=C(Nc1cc(C(F)(F)F)cc(C(F)(F)F)c1)Nc1ccc2oc(=O)ccc2c1", 36.8),
    ("O=C(CCCCCCNC(=O)C(O)(O)C(F)(F)F)Nc1ccc(-c2ccccc2)cc1", 33.8),
]
